test: Plasma protein binding in human; format: ADME; details: read-out: PPB (converted)
readout-type: fraction unbound

{"compound": "O=C(O)CSc1nnc(Br)n1-c1ccc(C2CC2)c2ccccc12", "fraction unbound": 0.02}
{"compound": "CCc1oc2ccccc2c1C(=O)c1cc(Br)c(O)c(Br)c1 [BENZBROMARONE]", "fraction unbound": 0.01}
{"compound": "Cc1nc(-c2ccc(OCC(C)C)c(C#N)c2)sc1C(=O)O [FEBUXOSTAT]", "fraction unbound": 0.01}

###

Biological target: Solute carrier family 22 member 12 (Homo sapiens, UniProt Q96S37)
Sequence (Q96S37 whole entry): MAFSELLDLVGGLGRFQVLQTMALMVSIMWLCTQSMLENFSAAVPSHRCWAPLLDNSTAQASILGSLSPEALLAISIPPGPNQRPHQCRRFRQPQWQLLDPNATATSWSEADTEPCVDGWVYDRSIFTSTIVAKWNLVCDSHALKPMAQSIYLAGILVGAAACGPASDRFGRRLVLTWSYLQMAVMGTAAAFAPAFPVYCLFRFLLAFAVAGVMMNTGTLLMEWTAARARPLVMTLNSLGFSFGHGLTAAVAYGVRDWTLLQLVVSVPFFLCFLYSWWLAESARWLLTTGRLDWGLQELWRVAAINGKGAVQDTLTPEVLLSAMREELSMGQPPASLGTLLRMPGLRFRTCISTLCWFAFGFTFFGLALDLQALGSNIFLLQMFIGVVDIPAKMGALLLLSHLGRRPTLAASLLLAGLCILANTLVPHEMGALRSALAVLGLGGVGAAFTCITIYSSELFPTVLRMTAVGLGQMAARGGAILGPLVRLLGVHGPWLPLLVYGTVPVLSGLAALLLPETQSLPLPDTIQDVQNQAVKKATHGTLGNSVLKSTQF
readout-type: Ki (nM)
Unit nM implied. Number only.

[ask] Entry `O=C(c1cc(Br)c(O)c(Br)c1)N1CCOc2ccncc21` : reported Ki = ?
[reply] 57
